- target-desc: recombinant human IL-21 (rhIL-21) (human, UniProt Q9HBE4 30-162, limits assumed)
- Sequence (Q9HBE4 30-162 limits assumed): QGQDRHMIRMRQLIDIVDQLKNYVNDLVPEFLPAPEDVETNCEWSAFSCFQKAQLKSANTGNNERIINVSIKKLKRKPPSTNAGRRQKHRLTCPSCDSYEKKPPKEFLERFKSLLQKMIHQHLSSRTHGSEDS
- test-method-notes: cell-based or functional assay
readout-kind: % pSTAT3+ Jurkat cells, 0.1 nM rhIL-21 + 0 nM antibody

So what's the measured % pSTAT3+ Jurkat cells, 0.1 nM rhIL-21 + 0 nM antibody for this one? FYP014 (antibody, human IgG1, V domains shown, human IgG1; also called EP3103813A1 clone 366.328.10.63) VH: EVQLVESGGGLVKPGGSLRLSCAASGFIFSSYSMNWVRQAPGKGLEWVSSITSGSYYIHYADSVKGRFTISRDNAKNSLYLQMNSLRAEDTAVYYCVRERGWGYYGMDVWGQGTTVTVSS VL: AIQLTQSPSSLSASVGDRVTITCRASQDIDSALAWYQQKPGKAPKILIHDASSLESGVPSRFSGSGSGTDFTLTISSLQPEDFATYYCQQFNSYPYTFGQGTKLEIK
82.7%

So what's the measured % pSTAT3+ Jurkat cells, 0.1 nM rhIL-21 + 0 nM antibody for this one? LKK631 (antibody, human IgG1, V domains shown) VH: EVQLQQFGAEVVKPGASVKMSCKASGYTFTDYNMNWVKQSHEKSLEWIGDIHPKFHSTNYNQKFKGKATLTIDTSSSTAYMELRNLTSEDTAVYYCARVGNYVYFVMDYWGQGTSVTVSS VL: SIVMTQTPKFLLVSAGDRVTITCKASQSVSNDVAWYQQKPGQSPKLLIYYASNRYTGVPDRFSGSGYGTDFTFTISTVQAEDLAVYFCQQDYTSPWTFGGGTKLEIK
82.1%

So what's the measured % pSTAT3+ Jurkat cells, 0.1 nM rhIL-21 + 0 nM antibody for this one? ZAP122 (antibody, human IgG1, V domains shown) VH: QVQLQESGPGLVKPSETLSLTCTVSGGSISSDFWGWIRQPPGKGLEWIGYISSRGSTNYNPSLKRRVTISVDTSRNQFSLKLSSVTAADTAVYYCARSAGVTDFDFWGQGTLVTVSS VL: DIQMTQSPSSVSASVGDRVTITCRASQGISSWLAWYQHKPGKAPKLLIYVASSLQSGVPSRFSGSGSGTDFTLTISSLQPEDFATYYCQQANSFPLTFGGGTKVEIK
82%

So what's the measured % pSTAT3+ Jurkat cells, 0.1 nM rhIL-21 + 0 nM antibody for this one? MIZ926 (antibody, human IgG1, V domains shown) VH: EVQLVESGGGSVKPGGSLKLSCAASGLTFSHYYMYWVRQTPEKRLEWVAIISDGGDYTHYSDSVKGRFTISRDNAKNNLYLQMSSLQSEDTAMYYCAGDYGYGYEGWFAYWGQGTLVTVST VL: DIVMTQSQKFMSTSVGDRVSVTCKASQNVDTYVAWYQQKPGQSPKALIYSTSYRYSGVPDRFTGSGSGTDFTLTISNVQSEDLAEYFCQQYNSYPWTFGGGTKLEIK
82.5%
